Reported phosphorylation enrichment values for a set of sequences
system: Fer (mouse); assay: phosphorylation enrichment, bacterial display (enrichment ratio); higher = better substrate or ligand; peptides without Tyr show the background;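 note: 11-residue human phosphosite peptides and single-mutation variants displayed on the E. coli surface, counted by deep sequencing, each peptide's frequency after selection divided by its frequency in the unselected input library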;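 note: frequency after pTyr selection over input frequency; kinase dosed for 20-30% of maximal phosphorylation in three min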

- RESIDUE_STRING: "DMLYQYLKQIE [RPAP3_Y569]"
  phosphorylation enrichment: 6.39
- RESIDUE_STRING: "IDGLEYLHSPG [STK11_Y166_Q170P]"
  phosphorylation enrichment: 0.426
- RESIDUE_STRING: "GNFSGYDDAWD [POLR1C_Y36_YF]"
  phosphorylation enrichment: 0.479
- RESIDUE_STRING: "DQIDTYELSGA [DNM1_Y354_G359A]"
  phosphorylation enrichment: 0.637
- RESIDUE_STRING: "MRALIYNSSTA [PLEKHA7_Y243]"
  phosphorylation enrichment: 0.424
- RESIDUE_STRING: "LSDVIYVILRK [PMP22_Y153_G150D]"
  phosphorylation enrichment: 0.398
- RESIDUE_STRING: "EERNPYYSSAR [MCCC2_Y520_G517R]"
  phosphorylation enrichment: 0.505
- RESIDUE_STRING: "VAFLFYKSIGP [ADGRL4_Y302_V300L_YF]"
  phosphorylation enrichment: 0.55
- RESIDUE_STRING: "FQQLFYLLQTN [IQGAP2_Y890_YF]"
  phosphorylation enrichment: 0.561
- RESIDUE_STRING: "FSSLGYPPPEG [ZSWIM4_Y87_YF]"
  phosphorylation enrichment: 0.396
- RESIDUE_STRING: "TSESSYYKSLN [NGEF_Y288_A286S]"
  phosphorylation enrichment: 0.482
- RESIDUE_STRING: "TVQVAYFTMMM [SPATA17_Y83_YF]"
  phosphorylation enrichment: 0.678
- RESIDUE_STRING: "STEAIYRRYSK [SH3PXD2B_Y42]"
  phosphorylation enrichment: 0.341
- RESIDUE_STRING: "SDPIVYTLENI [EMR1_Y534_I533V]"
  phosphorylation enrichment: 2.35
- RESIDUE_STRING: "TLNVRHESVQA [CEACAM7_Y236_Y236H]"
  phosphorylation enrichment: 0.374
- RESIDUE_STRING: "SQETYYRVSNM [ABCD1_Y181_Q178E]"
  phosphorylation enrichment: 0.549
- RESIDUE_STRING: "LLLLFCVVRYC [MPZ_Y177_Y177C]"
  phosphorylation enrichment: 1.14
- RESIDUE_STRING: "HQNGMYGLHQD [SGSH_Y89]"
  phosphorylation enrichment: 0.656
- RESIDUE_STRING: "LFLALYTGLVR [PIGB_Y402_H407R]"
  phosphorylation enrichment: 0.539
- RESIDUE_STRING: "CTNPRYLAAGS [RABL3_Y185]"
  phosphorylation enrichment: 0.629
- RESIDUE_STRING: "INMKKYCKKDF [NTN1_Y490_YF]"
  phosphorylation enrichment: 0.572
- RESIDUE_STRING: "RLGDLYEEEMR [VIM_Y150]"
  phosphorylation enrichment: 0.377
- RESIDUE_STRING: "FSQNIYIQNRN [PKP2_Y631_YF]"
  phosphorylation enrichment: 0.418
- RESIDUE_STRING: "KNKNRSKNILP [PTPN11_Y279_Y279S]"
  phosphorylation enrichment: 0.486
- RESIDUE_STRING: "EKQARYEIVVE [CDH5_Y223]"
  phosphorylation enrichment: 0.466
- RESIDUE_STRING: "QDDTVYMGKVT [DCTN1_Y1244]"
  phosphorylation enrichment: 2.72
- RESIDUE_STRING: "NNIDFYKNTTN [FGFR2_Y657_K659N_YF]"
  phosphorylation enrichment: 0.448
- RESIDUE_STRING: "NNHGNYIVRLG [ETFDH_Y172]"
  phosphorylation enrichment: 0.438
- RESIDUE_STRING: "VFSIDYFRVGG [NTRK2_Y706_T704I_YF]"
  phosphorylation enrichment: 0.484
- RESIDUE_STRING: "VCHELYNAIRD [PBRM1_Y54_T56A]"
  phosphorylation enrichment: 0.567
- RESIDUE_STRING: "LGNIVYSSLCG [BCOR_Y90_P85L]"
  phosphorylation enrichment: 1.74
- RESIDUE_STRING: "FQRITYHNWRH [PDE6B_Y556_R552Q_YF]"
  phosphorylation enrichment: 0.452
- RESIDUE_STRING: "ADARMYGDLPW [PLP1_Y207_V209D]"
  phosphorylation enrichment: 1.43
- RESIDUE_STRING: "PEADKYCLTFA [FGG_Y300_R301C_YF]"
  phosphorylation enrichment: 0.72
- RESIDUE_STRING: "REVVNYVQKRN [RMI1_Y450]"
  phosphorylation enrichment: 0.554
- RESIDUE_STRING: "DCLASYLDKVR [KRT10_Y160_R156C]"
  phosphorylation enrichment: 0.402
- RESIDUE_STRING: "KLGDVYVNVAF [PGK1_Y161_D164V]"
  phosphorylation enrichment: 0.661
- RESIDUE_STRING: "ALCHFYKLNII [ETV6_Y402_R399C_YF]"
  phosphorylation enrichment: 0.692
- RESIDUE_STRING: "NRDNTYNPVSE [FGA_Y127_R129P]"
  phosphorylation enrichment: 0.481
- RESIDUE_STRING: "GDEEDYEEIPG [EGFR_opt_E_2015]"
  phosphorylation enrichment: 0.645
- RESIDUE_STRING: "IVLRSYPASGH [NID2_Y449]"
  phosphorylation enrichment: 0.479
- RESIDUE_STRING: "NAPNSYGRRPI [CDKN2A_Y44]"
  phosphorylation enrichment: 1.2
- RESIDUE_STRING: "QHVPDYRQNGY [PCDHGA1_Y890_V894G]"
  phosphorylation enrichment: 0.496
- RESIDUE_STRING: "ENFSEYQEISV [HEMGN_Y150_A154S]"
  phosphorylation enrichment: 1.42
- RESIDUE_STRING: "SSYPDYLAAVD [GLB1_Y154_D151Y]"
  phosphorylation enrichment: 0.495
- RESIDUE_STRING: "ALAHKHHGGGG [HBB_Y146_Y146H]"
  phosphorylation enrichment: 0.419
- RESIDUE_STRING: "NFRTTYVNANE [KCNH2_Y475]"
  phosphorylation enrichment: 0.551
- RESIDUE_STRING: "DRLASYPEKVR [KRT13_Y118_L119P]"
  phosphorylation enrichment: 0.329
- RESIDUE_STRING: "PAKPRYRARQR [KCNJ11_Y26_E23K]"
  phosphorylation enrichment: 0.767
- RESIDUE_STRING: "RFVTRSIFNRE [HLA-DQB1_Y62_Y62S_YF]"
  phosphorylation enrichment: 0.652
- RESIDUE_STRING: "GCRSKYVGLWG [KCNQ1_Y184]"
  phosphorylation enrichment: 0.408
- RESIDUE_STRING: "GQDLLYEDEDL [PACS1_Y303_F302L]"
  phosphorylation enrichment: 2.38
- RESIDUE_STRING: "VEKGSYSALLA [ABCC2_Y845]"
  phosphorylation enrichment: 0.45
- RESIDUE_STRING: "LGKGSYAKVKS [TSSK2_Y23]"
  phosphorylation enrichment: 0.693
- RESIDUE_STRING: "GGCQEYTGAPY [NAXD_Y85]"
  phosphorylation enrichment: 0.524
